Each recorded value in this set is attributed to paper doi:10.1101/2025.08.06.668955.

Test system: endogenous HTT
testDescription: Macrocycle precipitation (MP) of endogenous HTT from HEK293T cell extracts
Type: binding, human
conditionsUsed: HEK293 cell lysate, 2 mg protein, streptavidin beads conjugated at 1.25 μM macrocycle, 1 hour at 4°C
Bridges are numbered along the chain shown (N, C = ends). Where no end group is shown, it is not given here. [ ]: non-standard residue; d: D form.
quantityMeasured: Capture of endogenous HTT by immobilized biotinylated macrocycle

substance="HHD3-AK-Bio: biotinylated derivative of HHD3 with a 2 amino acid linker (AK-Bio) ({CH2CO}-[dY]TRHWQNNWWILYHEFCAK; thioether N-17 (inferred); also: biotin joined via AK linker, site not given here)" valueobserved=captured
substance="HL2-PEG11-Bio: biotinylated derivative of HL2 with a PEG11 spacer ({CH2CO}-YTARYLTLGTLHYKC; thioether N-15 (inferred); also: biotin joined via PEG11 spacer)" valueobserved=captured
substance="HHL1-AK-Bio: biotinylated derivative of HHL1 with a 2 amino acid linker (AK-Bio) ({CH2CO}-YLIRSSFNWFVFVEVPCAK; thioether N-17 (inferred); also: biotin joined via 2 amino acid linker AK)" valueobserved="no detectable binding"
substance="HD4-AK-Bio: biotinylated derivative of HD4 with a 2 amino acid linker (AK-Bio) (Ac-[dY]DIWCETNKQTGILVLCAK; thioether (positions not given here); also: thioether to downstream Cys, which of Cys5/Cys17 not given here, biotin joined via AK linker, site not given here)" valueobserved=captured
substance="HL5-PEG11-Bio: biotinylated derivative of HL5 with a PEG11 spacer ({CH2CO}-YTHFQVAPWIQSLC; thioether N-14 (inferred); also: biotin joined via PEG11 spacer)" valueobserved=captured
substance="HHL1-PEG11-Bio: biotinylated derivative of HHL1 with a PEG11 spacer ({CH2CO}-YLIRSSFNWFVFVEVPC; thioether N-17 (inferred); also: biotin joined via PEG11 spacer)" valueobserved="no detectable binding"
